# credit: the DeepSol protein solubility set

- protocol_text: soluble on expression in E. coli; label from the status in PepcDB or PDB records
quantity_measured: soluble on expression in E. coli

Some sequences with recorded soluble on expression in E. coli:
sequence_code=MSFDAKSLQQVREQVAARLRLDAGRPWLMVHAGSGGSANNLSIEQYARLIIKLNQACPELQCILTAGPGEERIAEQLAAELLAHGGNGWIYRSDEGLPKFCQVMANAALFVAGSTGPLHIAAALDVPTIGFFPAHRSATPLRWRPLNSEGRHLAFSPPEDSDHPEDMSQLDPKTMAAAIARWAPPFWRTEHLEHHHHHH measured_result=soluble
sequence_code=MKPESHCVYLELSAEREHKFYEVTVEGAELTIRYGRIGTEGQTQRKSFADSAGAQAEAEKKLVEKRKKGYGDAVRGQTEKKAVEQPRLKLPRKFEPYRERIEATLRPVLLLEVLEEEPGPLGSKVGGVPYRVQGEAWPTDTEGRPLTFLAQLNFADLPPLEGYPENGILQFFIGRDDLYGCDFMRPEEGNPASFEVRWSPEPQMDLSQLDVETPDFDDDGFSPLETLRGFGLRGQQVEQPMSWCDCHFEQAIGLDLCDNSEGPEGRALGEWRQEKYDELATYGHQVGGYPSFTQEDPRTADDPRILLFQLDSEAGKITWGDVGIANFFIDPDDLARWDFSRVAYNWDCTLEHHHHHH measured_result=soluble
sequence_code=MGSDKIHHHHHHMLEHKIDFMVTLEVKEANANGDPLNGNMPRTDAKGYGVMSDVSIKRKIRNRLQDMGKSIFVQANERIEDDFRSLEKRFSQHFTAKTPDKEIEEKANALWFDVRAFGQVFTYLKKSIGVRGPVSISMAKSLEPIVISSLQITRSTNGMEAKNNSGRSSDTMGTKHFVDYGVYVLKGSINAYFAEKTGFSQEDAEAIKEVLVSLFENDASSARPEGSMRVCEVFWFTHSSKLGNVSSARVFDLLEYHQSIEEKSTYDAYQIHLNQEKLAKYEAKGLTLEILEGL measured_result="not soluble"
sequence_code=KSIYLQSPYFIPDQSYINALKMAANSGVEVNLMIPCKPDHPFVYWATFSNAADLLDSGVNIYTYQNGFIHSKILMIDDEISSIGSANMDFRSFELNFEVNAFIYDEDIAKQLRQAFEKDIEQSKLLTKEVYDKR measured_result="not soluble"

Memo: `MSSLFVVGIGPGSNDLMTPQASLAIERSEYVIGFSLYVSFIKEKFPNKIYISNGMQGEIERAKKAIELARSGHNVSIISSGDAGIYGIAGAVFEILSTLEDNMPEVSVVPGIS` , reported soluble on expression in E. coli: soluble
